Catalogue of compounds with associated MIC50
system: Streptococcus pneumoniae; assay: Antimicrobial activity against Streptococcus pneumoniae serotype 3 by broth microdilution method; assay type: functional

# compound, assay endpoint, measurement
data = [
    ("CCC[C@@H]1C[C@@H](C(=O)N[C@@H]([C@H]2O[C@H](SC)[C@H](O)[C@@H](O)[C@H]2O)[C@H](C)Cl)N(C)C1 [CLINDAMYCIN]", "MIC50", "≤ 0.25 µg/mL"),
    ("CN[C@H](CC(C)C)C(=O)N[C@H]1C(=O)N[C@@H](CC(N)=O)C(=O)N[C@H]2C(=O)N[C@H]3C(=O)N[C@H](C(=O)N[C@H](C(=O)O)c4cc(O)cc(O)c4-c4cc3ccc4O)[C@H](O)c3ccc(c(Cl)c3)Oc3cc2cc(c3O[C@@H]2O[C@H](CO)[C@@H](O)[C@H](O)[C@H]2O[C@H]2C[C@](C)(N)[C@H](O)[C@H](C)O2)Oc2ccc(cc2Cl)[C@H]1O [VANCOMYCIN]", "MIC50", "≤ 1 µg/mL"),
    ("CCO/N=C(\\C(=O)N[C@@H]1C(=O)N2C(C(=O)[O-])=C(Sc3nc(-c4cc[n+](C)cc4)cs3)CS[C@H]12)c1nsc(NP(=O)(O)O)n1 [CEFTAROLINE FOSAMIL]", "MIC50", "≤ 0.008 µg/mL"),
]

The record that follows has no MIC50 shown yet.
Request: Consider the compound CC[C@H]1OC(=O)[C@H](C)[C@@H](O[C@H]2C[C@@](C)(OC)[C@@H](O)[C@H](C)O2)[C@H](C)[C@@H](O[C@@H]2O[C@H](C)C[C@H](N(C)C)[C@H]2O)[C@](C)(O)C[C@@H](C)C(=O)[C@H](C)[C@@H](O)[C@]1(C)O [ERYTHROMYCIN] and give its measured MIC50.
Response: ≤ 0.25 µg/mL

* * *

Catalogue of compounds with associated MIC50
system: Streptococcus pneumoniae; assay: Antimicrobial activity against Streptococcus pneumoniae serotype 6C by broth microdilution method; type: functional

// worked examples, MIC50 included
# compound, MIC50
rows = [
    ("CC[C@H]1OC(=O)[C@H](C)[C@@H](O[C@H]2C[C@@](C)(OC)[C@@H](O)[C@H](C)O2)[C@H](C)[C@@H](O[C@@H]2O[C@H](C)C[C@H](N(C)C)[C@H]2O)[C@](C)(O)C[C@@H](C)C(=O)[C@H](C)[C@@H](O)[C@]1(C)O", "> 2 µg/mL"),
    ("CCC[C@@H]1C[C@@H](C(=O)N[C@@H]([C@H]2O[C@H](SC)[C@H](O)[C@@H](O)[C@H]2O)[C@H](C)Cl)N(C)C1", "≤ 0.25 µg/mL"),
    ("C[C@@H](O)[C@H]1C(=O)N2C(C(=O)O)=C(SCCNC=N)C[C@H]12 [IMIPENEM ANHYDROUS]", "≤ 0.12 µg/mL"),
]

Request: Provide value of MIC50 for this record tested with Streptococcus pneumoniae: `CN[C@H](CC(C)C)C(=O)N[C@H]1C(=O)N[C@@H](CC(N)=O)C(=O)N[C@H]2C(=O)N[C@H]3C(=O)N[C@H](C(=O)N[C@H](C(=O)O)c4cc(O)cc(O)c4-c4cc3ccc4O)[C@H](O)c3ccc(c(Cl)c3)Oc3cc2cc(c3O[C@@H]2O[C@H](CO)[C@@H](O)[C@H](O)[C@H]2O[C@H]2C[C@](C)(N)[C@H](O)[C@H](C)O2)Oc2ccc(cc2Cl)[C@H]1O`
Response: ≤ 1 µg/mL

Request: Try this compound too: `COc1c(N2C[C@@H]3CCCN[C@@H]3C2)c(F)cc2c(=O)c(C(=O)O)cn(C3CC3)c12`
Response: ≤ 0.5 µg/mL
